target: beta-catenin/TCF4 engagement (Homo sapiens, UniProt P35222); construct: expressed in transfected cells; host or cells: HEK293; test: Nano-BRET target engagement assay (B-cat-Halo & TCF4-Luc in HEK293 cells); assay type: cell-based; settings: absolute IC50; read-out: NanoBRET Abs IC50
recorded_metric: IC50 (µM)
One number for each entry, in µM.

CC(=O)N1CCC[C@]12CC=CCCCC1(CCCC=CCCCOC(=O)N3CC[C@@](C(=O)N[C@@H](Cc4ccsc4)C(=O)N[C@@H](Cc4csc5ccccc45)C(=O)N[C@@H](CCC(N)=O)C(N)=O)(C3)NC(=O)[C@H]([C@@H](C)O)NC(=O)[C@H](Cc3ccccc3)NC(=O)[C@H](C)NC(=O)[C@H](C)NC(=O)[C@H]([C@@H](C)O)NC(=O)[C@H](CC(=O)O)NC1=O)NC(=O)[C@H](CC(C)(C)C)NC(=O)[C@H](CC(=O)O)NC2=O (some centres unmarked) [I-1166]	14.6

# input for lookup
Prompt line: # input compound: CCCC[C@@H]1NC(=O)[C@H](CC(=O)O)NC(=O)[C@]2(CC=CCCCC3(CCCC=CCCCCCC[C@@](C)(C(=O)N[C@@H](Cc4ccccc4)C(=O)N[C@@H](Cc4csc5ccccc45)C(=O)N[C@@H](CCC(N)=O)C(N)=O)NC(=O)[C@H](CCC(N)=O)NC(=O)[C@H](Cc4ccccc4)NC(=O)[C@H](C)NC(=O)[C@H](C)NC(=O)[C@H](CCC(=O)O)NC(=O)[C@H](CC(=O)O)NC3=O)NC1=O)CCCN2C(C)=O (some centres unmarked) [I-1521] ; wanted: its IC50
Response line: 6

----------
Molecular target: beta-catenin/TCF4 engagement (Homo sapiens, UniProt P35222)
Construct: expressed in transfected cells; host or cells: HEK293
Sequence (P35222 1-781): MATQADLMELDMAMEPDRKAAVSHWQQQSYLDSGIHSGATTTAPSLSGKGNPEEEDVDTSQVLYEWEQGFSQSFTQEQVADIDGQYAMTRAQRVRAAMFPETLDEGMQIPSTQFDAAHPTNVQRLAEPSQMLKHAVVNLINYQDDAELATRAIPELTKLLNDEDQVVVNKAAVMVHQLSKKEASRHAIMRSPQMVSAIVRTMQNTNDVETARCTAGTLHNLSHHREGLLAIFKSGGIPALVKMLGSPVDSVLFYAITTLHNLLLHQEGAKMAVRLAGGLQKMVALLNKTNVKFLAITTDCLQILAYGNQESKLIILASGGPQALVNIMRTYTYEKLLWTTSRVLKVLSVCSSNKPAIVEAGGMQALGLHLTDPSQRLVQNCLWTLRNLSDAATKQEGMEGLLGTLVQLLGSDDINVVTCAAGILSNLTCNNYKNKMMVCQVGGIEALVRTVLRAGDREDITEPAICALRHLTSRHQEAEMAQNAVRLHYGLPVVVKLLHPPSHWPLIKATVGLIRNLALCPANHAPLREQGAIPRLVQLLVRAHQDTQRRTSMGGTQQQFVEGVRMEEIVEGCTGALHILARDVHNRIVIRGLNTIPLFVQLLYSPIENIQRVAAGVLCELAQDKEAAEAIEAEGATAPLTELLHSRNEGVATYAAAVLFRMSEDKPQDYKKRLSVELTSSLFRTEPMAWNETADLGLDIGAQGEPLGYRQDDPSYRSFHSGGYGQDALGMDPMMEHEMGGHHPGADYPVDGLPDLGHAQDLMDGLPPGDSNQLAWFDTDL
Test: Nano-BRET target engagement assay (B-cat-Halo & TCF4-Luc in HEK293 cells)
Type: cell-based
Conditions: read-out: NanoBRET Abs IC50
pIC50: −log10 of the molar value.
recorded_metric: pIC50

Could I get pIC50 for every one of these entries?
1. CC(=O)N1CCC[C@]12CC=CCCCC1(CCCC=CCCCOC(=O)N3CC[C@@](C(=O)N[C@@H](Cc4ccccc4F)C(=O)N[C@@H](Cc4csc5ccccc45)C(=O)N[C@@H](CO)C(N)=O)(C3)NC(=O)[C@H]([C@@H](C)O)NC(=O)[C@H](Cc3ccccc3)NC(=O)[C@H](C)NC(=O)[C@H](C)NC(=O)[C@H](CC(=O)O)NC(=O)[C@H](CC(=O)O)NC1=O)NC(=O)[C@H](CC(C)(C)C)NC(=O)[C@H](CC(=O)O)NC2=O (stereo partly drawn)
2. CC(=O)N1CCC[C@]12CC=CCCCC1(CCCC=CCCCOC(=O)N3CC[C@@](C(=O)N[C@@H](Cc4ccsc4)C(=O)N[C@@H](Cc4csc5ccccc45)C(=O)N[C@@H](CCC(N)=O)C(N)=O)(C3)NC(=O)[C@H](CC(N)=O)NC(=O)[C@H](Cc3ccccc3)NC(=O)[C@H](CCCCNC(=O)CN3CCN(C)CC3)NC(=O)[C@H](C)NC(=O)[C@H](CC(=O)O)NC(=O)[C@H](CC(=O)O)NC1=O)NC(=O)[C@H](CC(C)(C)C)NC(=O)[C@H](CC(=O)O)NC2=O (stereo partly drawn)

Response line:
4.82
< 4.70

Prompt line: # input molecule: CC(=O)N1CCC[C@]12CC=CCC1(CC=CCCCCCOC(=O)N3CC[C@](C(=O)N[C@@H](Cc4ccsc4)C(=O)N[C@@H](Cc4csc5ccccc45)C(=O)N[C@@H](CCC(N)=O)C(N)=O)(C3)NC(=O)[C@H](CC(C)C)NC(=O)[C@H](Cc3ccccc3)NC(=O)[C@H](C)NC(=O)[C@H](C)NC(=O)[C@H](CC(=O)O)NC(=O)[C@H](CC(=O)O)NC1=O)NC(=O)[C@H](CC(C)(C)C)NC(=O)[C@H](CC(=O)O)NC2=O (single isomer, unassigned) [I-2159] ; wanted: its pIC50
Response line: < 4.70
